These measurements were taken from ChEMBL document CHEMBL1155274.

// reported zone of inhibition at 100 µg/mL per item
# Test system: Alternaria alternata
# ASSAY_METHOD_TEXT: Antimicrobial activity against Alternaria alternata at 100 ug/mL after 3 to 4 days by disk diffusion method
# STATED_CONDITIONS: read-out: IZ
Provide only the numeric value, understood in mm.

[[record]]
smiles_str = "CSC(Nc1c(C#N)c(SC)nn1-c1nnc(-c2ccccc2)c(-c2ccccc2)n1)=C(C#N)C#N"
system_name = "Alternaria alternata"
reported = 8

[[record]]
smiles_str = "CSc1nn(-c2nnc(-c3ccccc3)c(-c3ccccc3)n2)c2nc3c(C#N)c(N)nn3c(N)c12"
system_name = "Alternaria alternata"
reported = 16

[[record]]
smiles_str = "CSc1nn(-c2nnc(-c3ccccc3)c(-c3ccccc3)n2)c2nc(-c3ccccc3)c3c(C)c(C#N)c(N)nc3c12"
system_name = "Alternaria alternata"
reported = 9

[[record]]
smiles_str = "N#Cc1c(N)nn2c(N)c3c(nc12)n(-c1nnc(-c2ccccc2)c(-c2ccccc2)n1)n1c(=O)c2ccccc2nc31"
system_name = "Alternaria alternata"
reported = 19

[[record]]
smiles_str = "Cc1nc2c(c(NN)nn2-c2nnc(-c3ccccc3)c(-c3ccccc3)n2)c(=O)[nH]1"
system_name = "Alternaria alternata"
reported = 13


For Cc1nc2c(c(=O)[nH]1)c1nnc(C)c(=O)n1n2-c1nnc(-c2ccccc2)c(-c2ccccc2)n1 , what is its reported zone of inhibition at 100 µg/mL?
16

For CSc1nn(-c2nnc(-c3ccccc3)c(-c3ccccc3)n2)c2nc(C)c(C#N)c(N)c12 , what is its reported zone of inhibition at 100 µg/mL?
5

For CSc1nn(-c2nnc(-c3ccccc3)c(-c3ccccc3)n2)c2nc(C)c3c(=O)[nH]cnc3c12 , what is its reported zone of inhibition at 100 µg/mL?
12

* * *

# System: Artemia salina
# ASSAY_METHOD_TEXT: Toxicity against Artemia salina assessed as number of the nauplii died after 24 hrs
# Format: organism-based
# STATED_CONDITIONS: in vivo
// reported log10 LC50 per item
Transform log10 | Measure LC50 | Unit ppm

The examples below pair each entry with its known result.
[[record]]
smiles_str = "CSc1nn(-c2nnc(-c3ccccc3)c(-c3ccccc3)n2)c2nc(-c3ccccc3)c3c(C)c(C#N)c(N)nc3c12"
system_name = "Artemia salina"
reported = -0.24

[[record]]
smiles_str = "N#Cc1c(N)nn2c(N)c3c(nc12)n(-c1nnc(-c2ccccc2)c(-c2ccccc2)n1)n1c(=O)c2ccccc2nc31"
system_name = "Artemia salina"
reported = 0.14

[[record]]
smiles_str = "Cc1nc2c(c(=O)[nH]1)c1nnc(-c3ccccc3)n1n2-c1nnc(-c2ccccc2)c(-c2ccccc2)n1"
system_name = "Artemia salina"
reported = 0.55

[[record]]
smiles_str = "CSc1nn(-c2nnc(-c3ccccc3)c(-c3ccccc3)n2)c2nc3c(C#N)c(N)nn3c(N)c12"
system_name = "Artemia salina"
reported = 0.36

[[record]]
smiles_str = "O=C(O)c1cc(O)c(O)c(O)c1"
system_name = "Artemia salina"
reported = 0.66


// next item, log10 LC50 requested
For Cc1nc2c(c(=O)[nH]1)c1nnc(C)c(=O)n1n2-c1nnc(-c2ccccc2)c(-c2ccccc2)n1 , what is its reported log10 LC50?
0.81

* * *

// reported zone of inhibition at 100 µg/mL per item
# Tested on: Aspergillus niger
# ASSAY_METHOD_TEXT: Antimicrobial activity against Aspergillus niger at 100 ug/mL after 3 to 4 days by disk diffusion method
# STATED_CONDITIONS: read-out: IZ
Provide only the numeric value, understood in mm.

The examples below pair each entry with its known result.
[[record]]
smiles_str = "Cc1nc2c(c(=O)[nH]1)c1nnc(C)c(=O)n1n2-c1nnc(-c2ccccc2)c(-c2ccccc2)n1"
system_name = "Aspergillus niger"
readout_unit = "mm"
reported = 15

[[record]]
smiles_str = "CSc1nn(-c2nnc(-c3ccccc3)c(-c3ccccc3)n2)c(N)c1C#N"
system_name = "Aspergillus niger"
readout_unit = "mm"
reported = 6


For CC(=O)c1c(-c2ccccc2)nc2c3c(nn2-c2nnc(-c4ccccc4)c(-c4ccccc4)n2)N(c2ccccc2)C(C)=Nc13 , what is its reported zone of inhibition at 100 µg/mL?
7

For CSc1nn(-c2nnc(-c3ccccc3)c(-c3ccccc3)n2)c2nc(C)[nH]c(=O)c12 , what is its reported zone of inhibition at 100 µg/mL?
9

For CSc1nn(-c2nnc(-c3ccccc3)c(-c3ccccc3)n2)c2nc(C)c3c(=O)[nH]cnc3c12 , what is its reported zone of inhibition at 100 µg/mL?
10

For Nc1nc(=S)[nH]c2nn(-c3nnc(-c4ccccc4)c(-c4ccccc4)n3)c(N)c12 , what is its reported zone of inhibition at 100 µg/mL?
7

For CSC(Nc1c(C#N)c(SC)nn1-c1nnc(-c2ccccc2)c(-c2ccccc2)n1)=C(C#N)C#N , what is its reported zone of inhibition at 100 µg/mL?
6

For Cc1nc2c(c(=O)[nH]1)c1nnc(-c3ccccc3)n1n2-c1nnc(-c2ccccc2)c(-c2ccccc2)n1 , what is its reported zone of inhibition at 100 µg/mL?
12
